- Test system: SK-MEL-2
- assay.remarks: Cytotoxicity against human SK-MEL-2 cells assessed as cellular growth at 10 uM by SRB assay
- Type: functional
measured.attribute: Activity (%)

sample.smiles	target.or.system	reported.measurement
N#Cc1ccc(NC(=O)c2sc3nc4c(cc3c2N)C(=O)CCC4)cc1	SK-MEL-2	83
Cc1c(OCC(=O)c2ccccc2)ccc2c1oc(=O)c1ccccc12	SK-MEL-2	125.14
Nc1c(C(=O)Nc2cccc(Cl)c2)sc2nc3c(cc12)C(=O)CCC3	SK-MEL-2	69.74
O=C1N=C(c2ccccc2)S/C1=C\c1ccc2c(c1)OCO2	SK-MEL-2	110.33
O=C(Nc1ccc2oc(=O)ccc2c1)c1ccc(-c2ccc(Cl)c(Cl)c2)o1	SK-MEL-2	102.15

====

- Test system: SK-MEL-28
- assay.remarks: Cytotoxicity against human SK-MEL-28 cells assessed as cellular growth at 10 uM by SRB assay
- Type: functional
Collected Activity values appear next to each entry.
measured.attribute: Activity

sample.smiles	target.or.system	reported.measurement
CC1(C)CCc2cc(-c3ccn(S(=O)(=O)c4ccc(Cl)cc4)n3)ccc2O1	SK-MEL-28	94.67%
O=C(Nc1ccc2oc(=O)ccc2c1)c1ccc(-c2ccc(Cl)c(Cl)c2)o1	SK-MEL-28	101.23%
Cc1ccc(NC(=O)c2sc3nc4c(cc3c2N)C(=O)CCC4)c(Br)c1	SK-MEL-28	107.72%
CC1(C)CC(=O)c2cc3c(N)c(C(=O)NCc4ccccc4)sc3nc2C1	SK-MEL-28	102.38%

====

Collected Activity values appear next to each entry.
- Tested on: SN12C
- assay.remarks: Cytotoxicity against human SN12C cells assessed as cellular growth at 10 uM by SRB assay
- Type: functional

sample.smiles	unit.tag	Activity
Cc1ccc2c(c1)N/C(=C/C(=O)c1ccc(Cl)cc1)C(=O)O2	%	93.53
O=C(NCc1cccnc1)c1sc2cc([N+](=O)[O-])ccc2c1Cl	%	92.4
Cc1ccccc1NC(=O)c1sc2nc3c(cc2c1N)C(=O)CCC3	%	64.53
O=C(Nc1ccc2oc(=O)ccc2c1)c1ccc(-c2ccc(Cl)c(Cl)c2)o1	%	86.83
COc1ccc(S(=O)(=O)n2ccc(-c3ccc4c(c3)CCC(C)(C)O4)n2)cc1	%	97.48
O=S(=O)(Oc1ccc(-c2cnc3ccccc3n2)cc1)c1ccccc1	%	95.17
COc1ccc2nc(NC(=O)c3ccc(F)cc3)sc2c1	%	112.11

====

Collected Activity values appear next to each entry.
- System: MOLT-4
- assay.remarks: Cytotoxicity against human MOLT4 cells assessed as cellular growth at 10 uM by SRB assay
- Assay type: functional
measured.attribute: Activity (%)

sample.smiles	measured.attribute	reported.measurement
COc1cccc(C(=O)Nc2nc3ccc(Cl)cc3s2)c1	Activity	83.68
Cc1ccc(NC(=O)c2sc3nc4c(cc3c2N)C(=O)CCC4)c(Br)c1	Activity	103.27
CC1(C)CC(=O)c2cc3c(N)c(C(=O)NCc4ccccc4)sc3nc2C1	Activity	124.23
CC1(C)CCc2cc(-c3ccn(S(=O)(=O)c4ccc(Cl)cc4)n3)ccc2O1	Activity	65.38

====

Collected Activity values appear next to each entry.
- Tested on: UACC-62
- assay.remarks: Cytotoxicity against human UACC62 cells assessed as cellular growth at 10 uM by SRB assay
- Type: functional

sample.smiles	Activity [%]
Nc1c(C(=O)Nc2ccccc2F)sc2nc3c(cc12)C(=O)CCC3	23.7
CC1(C)CC(=O)c2cc3c(N)c(C(=O)Nc4ccc(Cl)cc4)sc3nc2C1	105.25
Cc1cc(C)c(NC(=O)c2sc3nc4c(cc3c2N)C(=O)CC(C)(C)C4)c(C)c1	96.9
N#Cc1ccc(NC(=O)c2sc3nc4c(cc3c2N)C(=O)CCC4)cc1	99.27
Nc1c(C(=O)Nc2cccc(Cl)c2)sc2nc3c(cc12)C(=O)CCC3	43.7
Nc1c(C(=O)NCc2ccccc2)sc2nc3c(cc12)C(=O)CCC3	115.69
O=C(NCCc1ccc(Cl)cc1)c1[nH]c2ccccc2c1Cl	81.86
Oc1ccccc1-c1nc(-c2cccs2)no1	89.11
COc1cccc(C(=O)Nc2nc3ccc(Cl)cc3s2)c1	87.44

The values you see were collected from ChEMBL document CHEMBL2202954.
